Form field: TGI (one value per entry).
System: OVCAR-3 ovarian
METHOD: NCI tumour cell line growth inhibition, 48 h

Form field TGI, entry `COc1ccc2cccc(C(=N)c3ccc(C)c4c3CCC4)c2c1` : 17.6 µM

Form field TGI, entry `COc1cc(C(=O)Nc2nnc(S(N)(=O)=O)s2)cc(OC)c1OC` : > 100 µM

* * *

Tested on: SK-MEL-28 melanoma
METHOD: NCI tumour cell line growth inhibition, 48 h
Form field: TGI (one value per entry).

For orientation, consider the following solved cases.
COMPOUND: COc1cc(S(=O)(=O)Nc2nc(-c3ccc(N4C(=O)/C(=C/c5ccccc5)N=C4c4ccccc4)cc3)cs2)ccc1Cl
TGI: > 100 µM
//
COMPOUND: C/C(=N\NS(=O)(=O)c1ccc(C)cc1)c1ccc[n+]([O-])n1
TGI: > 100 µM
//
COMPOUND: c1ccc2c(c1)CC1c3[nH]c4ccccc4c3CCN21 (stereo not given)
TGI: > 10 µM
//
COMPOUND: C=C1C(=O)O[C@H]2C1[C@H](OC(=O)/C(C)=C\COC(C)=O)C[C@]1(CO1)[C@@H]1[C@H](O)[C@H]3O[C@@]3(C)[C@@H]12 (stereo not given in full)
TGI: 31.7 µM

Field: next compound
Form field TGI, entry `Oc1cc2cc(-c3ccccc3)[nH]c2c2ccccc12` : > 100 µM

* * *

Form field: TGI (one value per entry).
System: HCC-2998 colon
METHOD: NCI tumour cell line growth inhibition, 48 h

For orientation, consider the following solved cases.
COMPOUND: CCOC(=O)/C=C1\Nc2ccccc2C(c2ccccc2)=NC1OC(C)=O (stereo unspecified)
EXPERIMENTAL TARGET: HCC-2998 colon
ASSAY RESULT: > 100 µM

COMPOUND: O=C1c2ccccc2-c2cc3ccccc3c(=O)n21
EXPERIMENTAL TARGET: HCC-2998 colon
ASSAY RESULT: > 100 µM

COMPOUND: O=C1OCC(C(=O)c2cccc(O)c2)C1=O (stereo unspecified)
EXPERIMENTAL TARGET: HCC-2998 colon
ASSAY RESULT: > 100 µM

COMPOUND: CCCCCCCCCCCCC(=O)NCC(=O)NC(Cc1ccccc1)C(=O)Oc1ccc([N+](=O)[O-])cc1 (stereo unspecified)
EXPERIMENTAL TARGET: HCC-2998 colon
ASSAY RESULT: > 100 µM

COMPOUND: CN(C)c1ccc(C(=NNC(=O)c2cc3ccccc3[nH]2)c2ccc(N(C)C)cc2)cc1
EXPERIMENTAL TARGET: HCC-2998 colon
ASSAY RESULT: 1.48 µM

COMPOUND: Cc1ccc([P+](Cc2ccc([N+](=O)[O-])cc2)(c2ccc(C)cc2)c2ccc(C)cc2)cc1
EXPERIMENTAL TARGET: HCC-2998 colon
ASSAY RESULT: 11.8 µM

COMPOUND: Cc1cccc(NC(=O)CC(=O)N2N=C(N3c4ccccc4Sc4ccccc43)CC2c2ccccc2)c1 (stereo unspecified)
EXPERIMENTAL TARGET: HCC-2998 colon
ASSAY RESULT: > 100 µM

COMPOUND: COc1cc(C2C3=C(COC3=O)N(CCO)c3cc4c(cc32)CCC4)cc(OC)c1O (stereo unspecified)
EXPERIMENTAL TARGET: HCC-2998 colon
ASSAY RESULT: 1.29 µM

Form field TGI for item `O=C(Cc1nc2ccc(C(=O)c3ccccc3)cc2[nH]c1=O)C(=O)Nc1ccccc1[N+](=O)[O-]` on HCC-2998 colon: > 100 µM

Form field TGI for item O=C1c2cc(Cl)ccc2-n2c(noc2=O)C2CSCN12 (stereo unspecified) on HCC-2998 colon: > 100 µM

Form field TGI for item `COc1c(O)c(OC)c(C(=O)/C=C/c2ccccc2)c(O)c1OC` on HCC-2998 colon: > 100 µM

Form field TGI for item CC1=NNC(N)=N/C1=C/C(Sc1ccc(Cl)cc1)c1cccs1 (stereo unspecified) on HCC-2998 colon: 26.9 µM

Form field TGI for item `COc1ccc2c(c1O)[C@@]13C=C(O)C(=O)C=C1[C@@H](C2)N(C)CC3` on HCC-2998 colon: > 100 µM

Form field TGI for item `COc1ccc(CNc2nc(NCc3ccc(OC)cc3)nc(NC3CCCCC3)n2)cc1` on HCC-2998 colon: 3.74 µM

Form field TGI for item `COC(=O)c1c(C)oc2ccc(OC(C)=O)cc12` on HCC-2998 colon: > 100 µM

Form field TGI for item CCOC(=O)/C=C1\Nc2ccccc2C12CCc1c([nH]c3ccccc13)C2C(=O)OCC (stereo unspecified) on HCC-2998 colon: > 100 µM

Form field TGI for item `O=c1oc(-c2ccc(O)c(O)c2)cc2cc(O)cc(O)c12` on HCC-2998 colon: 57.7 µM

Form field TGI for item `CC1=NN(c2nc(N)nc(/C(C#N)=C/c3ccncc3)n2)C(C)(C)C1` on HCC-2998 colon: > 100 µM

Form field TGI for item `O=C1c2cc3c(cc2CC12Cc1cc4c(cc1C2)CCC4)CCC3` on HCC-2998 colon: > 100 µM

Form field TGI for item `CCCCn1cc(C(=O)O)c(=O)c2c3sccc3ccc21` on HCC-2998 colon: > 100 µM

Form field TGI for item `CC1=C(C#N)C(N)=C2C(C)=C(C#N)C(N)=C12` on HCC-2998 colon: > 100 µM

* * *

Reported GI50 values, U251 CNS.

MOLECULE: CN1CCCC1c1cccnc1.O=C(O)c1ccccc1O.O=C([O-])c1ccccc1[OH2+].O=C([O-])c1ccccc1[OH2+].O=C([O-])c1ccccc1[OH2+].[Mn+2] (stereo not drawn)
EXPERIMENTAL TARGET: U251 CNS
GI50: > 100 µM

MOLECULE: Cc1ccc([P+](Cc2ccc([N+](=O)[O-])cc2)(c2ccc(C)cc2)c2ccc(C)cc2)cc1
EXPERIMENTAL TARGET: U251 CNS
GI50: 2.56 µM

MOLECULE: Cc1ccc(C2=Nc3c(N)ncnc3NC(c3cccc(Nc4ccnc5cc(C(F)(F)F)ccc45)c3)C2)cc1 (stereo not drawn)
EXPERIMENTAL TARGET: U251 CNS
GI50: 3.73 µM

MOLECULE: CC[C@]12C=CCN3CC[C@]4(C(=C(C(=O)OC)C1)Nc1cc(O)ccc14)[C@@H]32
EXPERIMENTAL TARGET: U251 CNS
GI50: 15.6 µM

MOLECULE: CCOC(=O)c1[nH]c2c(c1C)-c1[nH]c(=O)c(S(=O)(=O)c3ccccc3)cc1SC2
EXPERIMENTAL TARGET: U251 CNS
GI50: 31.1 µM

Form field GI50, entry `COc1ccc(C[C@H]2C[C@@H](O)[C@@H](C)C/C=C/Cc3cccc(O)c3C(=O)O2)cn1` : 17.9 µM

Form field GI50, entry `COc1cc[nH]c1/C=C1\C(=O)Nc2ccc(F)c(C#CC3(O)CCOCC3)c21` : 0.519 µM

Form field GI50, entry `CC(C)OP(=O)(OC(C)C)C(N(C)C)P(=O)(OC(C)C)OC(C)C.[Cl][Sn]([Cl])([Cl])[c]1ccccc1` : 4.47 µM

* * *

Tested on: 786-0 renal
METHOD: NCI tumour cell line growth inhibition, 48 h
QUANTITY NAME: GI50

For orientation, consider the following solved cases.
MOLECULE: CCN(CC)CCOc1ccc(/C=C2\C[C@H]3[C@@H]4CC=C5C[C@@H](OC(C)=O)CC[C@]5(C)[C@H]4CC[C@]3(C)[C@H]2OC(C)=O)cc1OC
GI50: 9.66 µM
//
MOLECULE: CC(C)OP(=O)(CP(=O)(OC(C)C)OC(C)C)OC(C)C.[CH3][Sn]([Br])([Br])[Br]
GI50: > 100 µM
//
MOLECULE: Cc1ccc([P+](Cc2ccc([N+](=O)[O-])cc2)(c2ccc(C)cc2)c2ccc(C)cc2)cc1
GI50: 9.72 µM
//
MOLECULE: Cc1nnc([S-])s1.[Au+].c1ccc([PH+](c2ccccc2)c2ccccc2)cc1
GI50: 1.78 µM
//
MOLECULE: C/C(=C(/c1ccc(O)cc1)c1ccc(OCCN2CCCC2)cc1)c1ccccc1
GI50: 1.86 µM

Form field GI50, entry `CCN(CC)CCC(=O)Nc1ccc(Cn2nnc3c2C(=O)c2nnn(Cc4ccc(NC(=O)CCN(CC)CC)cc4)c2C3=O)cc1` : 8.97 µM

Form field GI50, entry `COc1ccccc1C(=O)c1cnc(NC2CCN(S(C)(=O)=O)CC2)nc1N` : 8.15 µM

* * *

Tested on: UACC-62 melanoma
METHOD: NCI tumour cell line growth inhibition, 48 h
QUANTITY NAME: GI50

For orientation, consider the following solved cases.
COMPOUND: CCN(CC)CCOc1ccc(/C=C2\C[C@H]3[C@@H]4CC=C5C[C@@H](OC(C)=O)CC[C@]5(C)[C@H]4CC[C@]3(C)[C@H]2OC(C)=O)cc1OC
GI50: 11 µM

COMPOUND: O=C1OC(c2ccc(O)cc2)(c2ccc(O)cc2)c2cccc3cccc1c23
GI50: 11.3 µM

COMPOUND: CCCC/C(=N\N=C(N)N)c1ccc(F)cc1
GI50: 3.14 µM

Form field GI50, entry N#CC1c2ccccc2-c2ccccc2N1C(=O)c1ccccc1 (stereo not given) : 1.9 µM

Form field GI50, entry `COC(=O)c1cc(Nc2ccc(O)c3c2C(=O)c2c([N+](=O)[O-])ccc(O)c2C3=O)cc(C(=O)OC)c1` : 4.63 µM

Source of measurements: PubChem BioAssay (NCI)
